The origin of these recorded values is patent US8987474B2.

target: CD45 (Homo sapiens (Human), UniProt P08575); assay: PTP activity assay (DiFMUP substrate) with recombinant CD45; conditions: CD45, in vitro
Sequence (P08575 609-1306): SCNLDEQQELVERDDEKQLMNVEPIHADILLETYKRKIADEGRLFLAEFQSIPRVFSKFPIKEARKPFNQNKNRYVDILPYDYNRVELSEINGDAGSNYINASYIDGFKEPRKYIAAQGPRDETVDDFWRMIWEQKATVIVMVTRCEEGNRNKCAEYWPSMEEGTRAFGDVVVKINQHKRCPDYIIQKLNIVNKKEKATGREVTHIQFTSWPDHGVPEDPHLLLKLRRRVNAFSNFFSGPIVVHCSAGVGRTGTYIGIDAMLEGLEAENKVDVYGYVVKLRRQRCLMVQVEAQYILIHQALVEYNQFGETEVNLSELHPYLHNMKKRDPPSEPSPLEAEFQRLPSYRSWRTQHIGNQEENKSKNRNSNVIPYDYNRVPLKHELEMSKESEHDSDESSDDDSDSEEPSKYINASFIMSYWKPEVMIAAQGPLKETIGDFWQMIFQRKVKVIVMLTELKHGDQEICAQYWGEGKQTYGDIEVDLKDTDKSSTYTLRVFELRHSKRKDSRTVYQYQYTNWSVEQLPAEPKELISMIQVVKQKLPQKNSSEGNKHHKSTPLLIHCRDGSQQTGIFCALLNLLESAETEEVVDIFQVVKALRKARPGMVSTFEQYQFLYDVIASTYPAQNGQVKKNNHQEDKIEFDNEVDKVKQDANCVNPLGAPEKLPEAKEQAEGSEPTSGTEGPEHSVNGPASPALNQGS
Attribute Measured: pIC50
Just so you know, pIC50 here is -log10 of the concentration in molar units; reply with that number alone.

So for `O=S(=O)(O)c1ccc2cc(/N=N\c3cc(S(=O)(=O)O)c4cccnc4c3O)ccc2c1` , the logged pIC50 turned out to be 4.07

---

Would you mind telling me the reported % PTP activity of each entry?
molecular target: Shp2 (Homo sapiens (Human), UniProt Q06124); experiment: PTP activity assay (DiFMUP substrate) with GST-Shp2; type: biochemical; details: at 20 μM
Sequence (Q06124 205-593): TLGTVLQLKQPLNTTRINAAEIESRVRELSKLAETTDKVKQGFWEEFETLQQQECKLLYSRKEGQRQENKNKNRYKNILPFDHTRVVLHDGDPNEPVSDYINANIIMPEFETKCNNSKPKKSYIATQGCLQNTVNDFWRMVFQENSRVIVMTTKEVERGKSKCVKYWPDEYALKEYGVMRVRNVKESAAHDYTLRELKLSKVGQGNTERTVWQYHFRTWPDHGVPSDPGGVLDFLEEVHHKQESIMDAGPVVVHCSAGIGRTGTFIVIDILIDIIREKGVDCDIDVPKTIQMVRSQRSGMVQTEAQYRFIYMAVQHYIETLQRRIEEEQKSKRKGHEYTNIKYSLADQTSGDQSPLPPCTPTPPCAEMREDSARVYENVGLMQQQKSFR

Note to self: % PTP activity of `CC(C)NS(=O)(=O)c1ccc2c(c1)/C(=C/Nc1ccccc1[N+](=O)[O-])C(=O)N2` with Shp2 (Homo sapiens (Human), UniProt Q06124) was 46 ± 1% (2) 20 μM

Note to self: % PTP activity of `CC(C)NS(=O)(=O)c1ccc2c(c1)/C(=N/Nc1cccc(C(=O)O)c1)C(=O)N2` with Shp2 (Homo sapiens (Human), UniProt Q06124) was 54 ± 8% (2) At 20 μM

Note to self: % PTP activity of `O=C1Nc2ccc(S(=O)(=O)O)cc2/C1=N/Nc1cccc2ccccc12` with Shp2 (Homo sapiens (Human), UniProt Q06124) was 76 + 12% at 20 μM

Note to self: % PTP activity of `COC(=O)c1ccc2[nH]cc(C(=O)c3ccccc3)c2c1` with Shp2 (Homo sapiens (Human), UniProt Q06124) was 42 ± 10% (2) at 20 μM

Note to self: % PTP activity of `CC(C)NS(=O)(=O)c1ccc2c(c1)/C(=N/Nc1cccc(C(=O)NCc3cccnc3)c1)C(=O)N2` with Shp2 (Homo sapiens (Human), UniProt Q06124) was 54 ± 7% (2) at 20 μM

Note to self: % PTP activity of `CNC(=O)c1ccccc1N/N=C1\C(=O)Nc2ccc(S(=O)(=O)NC(C)C)cc21` with Shp2 (Homo sapiens (Human), UniProt Q06124) was 43 ± 2% (2) At 20 μM

Note to self: % PTP activity of `O=C1Nc2ccc(C(=O)O)cc2/C1=N/Nc1ccccc1[N+](=O)[O-]` with Shp2 (Homo sapiens (Human), UniProt Q06124) was 60.57% (1) at 20 μM

Note to self: % PTP activity of `CNC(=O)c1cccc(N/N=C2\C(=O)Nc3ccc(S(=O)(=O)NC(C)C)cc32)c1` with Shp2 (Homo sapiens (Human), UniProt Q06124) was 47 ± 1% (2) at 20 μM

Note to self: % PTP activity of `O=C1Nc2ccc(S(=O)(=O)O)cc2/C1=N/Nc1ccccc1C(=O)O` with Shp2 (Homo sapiens (Human), UniProt Q06124) was 67 ± 8% at 20 μM
